The reader will find reported half-life values listed item by item below.
# ASSAY DETAILS: Half life period by iv administration in dog at a dose of 0.3 mg/kg
# Type: ADME, organism-based, Canis lupus familiaris
# Set-up: dose 0.3 mg/kg, route intravenous
# TEST CONDITIONS: in vivo
A bare number is not enough; add the unit after it.

Provide half-life value for the following compound: `Cc1c[nH]c(=O)n(CCCN2CCN(c3ccc(F)cc3OCC(F)(F)F)CC2)c1=O` 2.5 h

Provide half-life value for the following compound: `C[C@]1(O)C(=O)N(CCCN2CCN(c3ccc(F)cc3OCC(F)(F)F)CC2)C(=O)N[C@H]1O` 11 h

* * *

The reader will find reported Ki values listed item by item below.
# STUDY TARGET: Alpha-1A adrenergic receptor (Homo sapiens)
# Sequence (P35348 whole entry): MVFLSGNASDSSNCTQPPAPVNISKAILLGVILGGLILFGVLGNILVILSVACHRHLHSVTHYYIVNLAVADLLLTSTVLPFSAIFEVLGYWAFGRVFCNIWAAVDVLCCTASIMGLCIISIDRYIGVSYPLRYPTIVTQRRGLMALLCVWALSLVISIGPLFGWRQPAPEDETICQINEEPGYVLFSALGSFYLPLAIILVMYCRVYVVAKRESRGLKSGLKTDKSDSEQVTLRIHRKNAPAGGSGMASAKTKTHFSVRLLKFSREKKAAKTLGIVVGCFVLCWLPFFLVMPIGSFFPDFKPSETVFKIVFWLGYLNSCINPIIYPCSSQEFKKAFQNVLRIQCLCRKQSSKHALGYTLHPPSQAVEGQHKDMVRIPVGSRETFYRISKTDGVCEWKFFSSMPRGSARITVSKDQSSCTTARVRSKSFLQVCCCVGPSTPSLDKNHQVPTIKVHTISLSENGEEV
# ASSAY DETAILS: Inhibition of [3H]prazosin binding to CHO-K1 whole cells expressing human cloned Alpha-1A adrenergic receptor

Provide Ki value for the following compound: `Cc1cc(=O)n(CCCN2CCN(c3ccc(F)cc3OCC(F)(F)F)CC2)c(=O)[nH]1` 1.58 nM

Provide Ki value for the following compound: `Cc1c[nH]c(=O)n(CCN2CCN(c3ccc(F)cc3OCC(F)(F)F)CC2)c1=O` 0.501 nM

Provide Ki value for the following compound: `Cc1n[nH]c(=O)n(CCCN2CCN(c3ccccc3OCC(F)(F)F)CC2)c1=O` 0.316 nM

Provide Ki value for the following compound: `Cc1cn(CCCN2CCN(c3ccccc3OCC(F)(F)F)CC2)c(=O)[nH]c1=O` 2 nM

Provide Ki value for the following compound: `O=c1[nH]c2ccccc2c(=O)n1CCCN1CCN(c2ccccc2OCC(F)(F)F)CC1` 0.0631 nM

Provide Ki value for the following compound: `C[C@]1(O)C(=O)N(CCCN2CCN(c3ccc(F)cc3OCC(F)(F)F)CC2)C(=O)N[C@H]1O` 5.01 nM

Provide Ki value for the following compound: `Cc1c[nH]c(=O)n(CCCN2CCN(c3ccccc3OCC(F)(F)F)CC2)c1=O` 0.251 nM

Provide Ki value for the following compound: `Cc1c[nH]c(=O)n(CC(C)(C)CN2CCN(c3ccccc3OCC(F)(F)F)CC2)c1=O` 3.98 nM

* * *

The reader will find reported log10 of Ki values listed item by item below.
# STUDY TARGET: Alpha-1B adrenergic receptor (Homo sapiens)
# Sequence (P35368 whole entry): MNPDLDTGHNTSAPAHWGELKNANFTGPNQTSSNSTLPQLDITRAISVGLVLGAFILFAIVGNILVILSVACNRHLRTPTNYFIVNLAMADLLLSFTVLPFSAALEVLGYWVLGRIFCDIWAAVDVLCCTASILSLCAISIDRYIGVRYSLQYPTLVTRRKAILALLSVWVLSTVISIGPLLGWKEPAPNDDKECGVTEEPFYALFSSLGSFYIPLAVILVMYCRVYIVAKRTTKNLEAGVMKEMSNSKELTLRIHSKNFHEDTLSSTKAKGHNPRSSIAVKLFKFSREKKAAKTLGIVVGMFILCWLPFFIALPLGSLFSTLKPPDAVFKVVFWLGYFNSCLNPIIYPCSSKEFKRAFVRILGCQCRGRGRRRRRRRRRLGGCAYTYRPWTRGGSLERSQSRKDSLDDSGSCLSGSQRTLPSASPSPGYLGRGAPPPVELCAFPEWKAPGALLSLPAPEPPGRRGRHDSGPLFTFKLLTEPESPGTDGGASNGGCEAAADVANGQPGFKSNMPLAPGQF
# ASSAY DETAILS: Inhibition of [3H]prazosin binding to CHO-K1 whole cells expressing human cloned Alpha-1B adrenergic receptor
Scale type: logarithmic (base 10). Underlying Ki unit: nM.

Cc1cc(=O)n(CCCN2CCN(c3ccc(F)cc3OCC(F)(F)F)CC2)c(=O)[nH]1 ... 2.20
CN(C)c1c[nH]c(=O)n(CCCN2CCN(c3ccc(F)cc3OCC(F)(F)F)CC2)c1=O ... 2.30

Provide log10 of Ki value for the following compound: `Cc1c[nH]c(=O)n(CC(C)(C)CN2CCN(c3ccccc3OCC(F)(F)F)CC2)c1=O` 2.60

Provide log10 of Ki value for the following compound: `O=c1[nH]c2ccccc2c(=O)n1CCCN1CCN(c2ccccc2OCC(F)(F)F)CC1` 0.70

Provide log10 of Ki value for the following compound: `C[C@]1(O)C(=O)N(CCCN2CCN(c3ccc(F)cc3OCC(F)(F)F)CC2)C(=O)N[C@H]1O` 2.40

Provide log10 of Ki value for the following compound: `Cc1cn(CCCN2CCN(c3ccccc3OCC(F)(F)F)CC2)c(=O)[nH]c1=O` 2.00

Provide log10 of Ki value for the following compound: `Cc1n[nH]c(=O)n(CCCN2CCN(c3ccccc3OCC(F)(F)F)CC2)c1=O` 1.60

Provide log10 of Ki value for the following compound: `COc1c[nH]c(=O)n(CCCN2CCN(c3ccc(F)cc3OCC(F)(F)F)CC2)c1=O` 2.20

Provide log10 of Ki value for the following compound: `Cc1c[nH]c(=O)n(CCN2CCN(c3ccc(F)cc3OCC(F)(F)F)CC2)c1=O` 1.20

Provide log10 of Ki value for the following compound: `Cc1c[nH]c(=O)n(CCCN2CCN(c3ccccc3OCC(F)(F)F)CC2)c1=O` 1.50
